This collection of values is drawn from ChEMBL document CHEMBL1201862.

- system: UniProtKB Q6QLK5
- Sequence (Q6QLK5 whole entry, the tested form may be a part): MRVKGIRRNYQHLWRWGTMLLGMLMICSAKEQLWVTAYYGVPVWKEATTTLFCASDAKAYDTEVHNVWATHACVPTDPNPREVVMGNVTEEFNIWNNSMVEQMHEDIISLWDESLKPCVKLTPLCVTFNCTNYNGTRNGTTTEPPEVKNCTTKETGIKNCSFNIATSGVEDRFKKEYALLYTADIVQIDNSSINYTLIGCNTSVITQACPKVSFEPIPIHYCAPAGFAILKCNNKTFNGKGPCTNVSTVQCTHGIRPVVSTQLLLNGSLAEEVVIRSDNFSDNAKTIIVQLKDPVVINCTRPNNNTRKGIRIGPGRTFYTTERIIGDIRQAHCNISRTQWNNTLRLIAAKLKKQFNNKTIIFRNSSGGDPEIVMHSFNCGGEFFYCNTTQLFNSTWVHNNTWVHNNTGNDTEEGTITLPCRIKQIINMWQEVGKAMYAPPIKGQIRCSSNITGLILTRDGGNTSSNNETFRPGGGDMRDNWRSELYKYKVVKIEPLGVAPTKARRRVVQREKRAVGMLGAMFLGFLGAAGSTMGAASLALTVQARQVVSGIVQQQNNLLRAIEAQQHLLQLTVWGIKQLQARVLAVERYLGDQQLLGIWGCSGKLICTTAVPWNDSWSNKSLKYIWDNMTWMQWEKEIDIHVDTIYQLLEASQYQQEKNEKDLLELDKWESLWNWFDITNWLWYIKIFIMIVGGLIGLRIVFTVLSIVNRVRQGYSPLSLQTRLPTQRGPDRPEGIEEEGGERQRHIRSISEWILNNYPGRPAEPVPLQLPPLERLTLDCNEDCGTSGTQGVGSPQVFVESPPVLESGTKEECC
- experimentDescription: cell-free HIV fusion peptide-binding blockers – biochemical, uHTS, fluorescence dequenching, […] (AID 1986)
Active and inactive are the calls of the source. No stated cut-off is given here; in the data, actives have a measured IC50 and inactives only a lower limit.
Listed molecules paired with reported IC50
measuredAttribute: IC50

{"molecule": "O=C(CCCN1C(=O)/C(=C/c2cccs2)SC1=S)Nc1ccc(O)c(C(=O)O)c1", "measuredAttribute": "IC50", "result": "24.1 µM (active)"}
{"molecule": "O=C(NC(=S)Nc1ccccc1C(=O)O)c1ccc(-c2ccc(Br)cc2)o1", "measuredAttribute": "IC50", "result": "18.5 µM (active)"}
{"molecule": "O=C1NN(c2ccc(Cl)c(Cl)c2)C(=O)/C1=C/c1cccc(OC(=O)c2cccs2)c1", "measuredAttribute": "IC50", "result": "11.8 µM (active)"}
{"molecule": "O=C(O)c1ccc(NS(=O)(=O)c2ccc3c(c2)C2C=CCC2C(c2ccccc2F)N3)cc1 (centres undefined)", "measuredAttribute": "IC50", "result": "17.7 µM (active)"}
